Where these numbers come from: patent US20240417469A1

target: T1, human CD3 protein (human, UniProt P07766 23-126; P04234 22-105); assay: ELISA, plate-coated CD3;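 note: binding to plate-immobilized human CD3 protein, bound antibody detected with peroxidase-labelled anti-human IgG and TMB, read as absorbance at 450 nm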
T1 construct: ELISA coating protein; also called Human CD3D & CD3E Heterodimer Protein
T1 sequence (P07766 23-126 limits assumed, chain 1 of 2): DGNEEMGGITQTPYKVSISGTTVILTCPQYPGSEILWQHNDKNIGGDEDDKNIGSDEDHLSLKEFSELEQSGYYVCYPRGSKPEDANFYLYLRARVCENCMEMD
T1 sequence (P04234 22-105 limits assumed, chain 2 of 2): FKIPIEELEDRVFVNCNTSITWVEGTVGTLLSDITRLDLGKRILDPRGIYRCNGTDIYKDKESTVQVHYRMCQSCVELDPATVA
Here, each record is paired with measured EC50 data.
measuredParameter: EC50 (ng/mL)

INSERT INTO results (binder, observedresult) VALUES
  ('Hu192A7B9-12 (antibody, V domains shown, humanized mAb) VH: EVQLQESGPGLVKPSETLSLTCTVSGFSLTSYNVHWVRQPPGKGLEWMGRMRYNGDTSYNSALKSRLTISRDTSKNQVSLKLSSVTAADTAVYYCTRGPRGGYYSALFDYWGQGTMVTVSS VL: DIQMTQSPSSLSASVGDRVTITCKASQNINRYLNWYQQKPGKAPKLLISIANSLQTGVPSRFSGSGSGTDFTLTISSLQPEDFATYYCLQHNSWYTFGQGTKLEIK', 9.74),
  ('Hu192A7B9-8 (antibody, V domains shown, humanized mAb) VH: EVQLQESGPGLVKPSETLSLTCTVSGGSISSYNVHWVRQPPGKGLEWIGRMRYNGDTSYNSALKSRVTISRDTSKNQFSLKLSSVTAADTAVYYCARGPRGGYYSALFDYWGQGTMVTVSS VL: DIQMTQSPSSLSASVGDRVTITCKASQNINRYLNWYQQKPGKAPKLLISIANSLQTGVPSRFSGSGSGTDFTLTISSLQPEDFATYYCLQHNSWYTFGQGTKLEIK', 6.42),
  ('Hu153A6B1-15 (antibody, V domains shown, humanized mAb) VH: EVQLQESGPGLVKPSETLSLTCTVSGGSISSYNIHWVRQPPGKGLEWMGRIRYNGDTSYNSALKSRLTISRDTSKNQFSLKLSSVTAADTAVYYCARGPYGGSREPLFDYWGQGTMVTVSS VL: DIQMTQSPSSLSASVGDRVTITCKTSQNINKYLNWFQQKPGKAPKLLIYTTNNLQTGIPSRFSGSGSGTDFTLTISSLQPEDFATYFCLQHGSGYTFGQGTKLEIK', 3.03);
